Entries and their EC50 values follow.
ASSAY SUMMARY: inhibitors of intracellular T. cruzi replication, confirmation, NIH3T3 host cells, beta-gal luminescence (AID 2044);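 also: intracellular parasites grown in NIH/3T3 mouse fibroblasts as host cells; luminescent beta-galactosidase reporter signal from transgenic T. cruzi replicating inside host cells; inhibitors lower the luminescence signal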
Assay type: functional, cell-based
Calls of active or inactive are those of the source.

Worked cases, EC50 given:
O=C1N=C(N/N=C/c2cccnc2)SC1Cc1ccc(SC(F)F)cc1 (configuration not stated)
969 nM (active)
CCCN(CCC)c1nc2c(C)cccn2c(=O)c1/C=C1/SC(=S)N(Cc2ccco2)C1=O
352 nM (active)
Cc1ccc2c(c1)sc(-c1ccc(N(C)C)cc1)[n+]2C
< 100 nM (active)
O=[N+]([O-])C(/C=C(\Cl)[N+](=O)[O-])=C(N1CCCCC1)N1CCCCC1
956 nM (active)
c1ccc(N=C2N=C(Nc3ccccn3)c3ccccc32)nc1
687 nM (active)

I have this compound here, `c1ccc(COc2cccc(CNCc3cccnc3)c2)cc1` , and I need its recorded EC50. 8340 nM (active)

I have this compound here, `Cc1cc(C)c(S(=O)(=O)c2ccc(Cl)cc2C)c(Cl)n1` , and I need its recorded EC50. 336 nM (active)

---

Entries and their IC50 values follow.
TARGET UNDER TEST: Genome polyprotein (dengue virus type 2)
ASSAY SUMMARY: Dengue-2 NS5 methyltransferase inhibitors, primary screen, biochemical, confirmation dose response (AID 588689)
Type: functional
Calls of active or inactive are those of the source.

Cc1c(CCC(=O)O)c(=O)oc2c(C)c3occ(-c4ccc(Cl)cc4)c3cc12
42.2 µM (active)
NC(=S)N=Nc1c(O)cc(O)c2nc(O)ccc12
20 µM (active)
COc1cc(-c2nnc(SCc3cc(=O)oc4cc(O)c(O)cc34)o2)cc(OC)c1OC
> 100 µM (active)

I have this molecule here, `Cc1ccc(S(=O)(=O)/N=C2\C=C(NS(=O)(=O)c3ccccc3)C(=O)c3ccccc32)cc1` , and I need its recorded IC50. 35.8 µM (active)

I have this molecule here, `Nc1ccc(S(=O)(=O)c2cc(O)c3ccccc3c2O)cc1` , and I need its recorded IC50. 5.47 µM (active)

I have this molecule here, Cc1ccc(CSc2nnc3c(n2)OC2(Nc4ccccc4-3)C(=O)Nc3ccc(F)cc32)cc1 (configuration not stated) , and I need its recorded IC50. 25 µM (active)

I have this molecule here, `Cc1nc2ccccc2c(=O)n1/N=C/c1ccc(O)c(O)c1O` , and I need its recorded IC50. > 100 µM (active)

---

Reported AC50 for target or system Cytochrome P450 2C9 (Homo sapiens), by entry.

Worked cases, AC50 given:
CCc1ccc(C(=O)COC(=O)c2cccc(N3C(=O)c4c(C)nc5ccccc5c4C3=O)c2)cc1
3.16 µM (inconclusive)
Nc1ccc(N2CCN(C(=O)c3ccco3)CC2)cc1
10 µM (inconclusive)
Cc1cccc(NCCNc2cccc(C)c2)c1
17.8 µM (inconclusive)
N#Cc1ccc(CN2CCCC3(CCN(C(=O)c4cccc(F)c4)CC3)C2)cc1
39.8 µM (inconclusive)
O=P(c1ccccc1)(c1ccccc1)N1CC2(CC2)CC(O)(c2ccccc2)C1 (centres undefined)
39.8 µM (inconclusive)

// map `Cc1cc(S(=O)(=O)NCCN(C)C)c(C)s1` to recorded AC50 (system: Cytochrome P450 2C9 (Homo sapiens)) 0.0447 µM (inconclusive)

// map `O=c1c(-c2cccs2)nc2cncnc2n1C1CC1` to recorded AC50 (system: Cytochrome P450 2C9 (Homo sapiens)) 15.8 µM (inconclusive)

// map `Nc1cccc2cc(S(=O)(=O)Nc3ccc(C(=O)O)cc3)ccc12` to recorded AC50 (system: Cytochrome P450 2C9 (Homo sapiens)) 7.94 µM (inconclusive)

// map `COc1ncc2nc(CCc3ccccc3)c(=O)n(CCc3ccccc3)c2n1` to recorded AC50 (system: Cytochrome P450 2C9 (Homo sapiens)) 2 µM (inconclusive)

---

ASSAY SUMMARY: Luminescence Cell-Based Dose Response HTS to Identify Activators of Luciferase Translation or Activity in H4 […] Cells. [Related pubchem assays: 1829 (Project Summary), 1814 (Primary HTS)]
Assay type: functional
Active and inactive are the calls of the source.
METRIC NAME: EC50

CC(CNC(=O)c1ccc(OC2CCN(Cc3ccccn3)CC2)cc1)c1ccccc1 (centres undefined)
53.8 µM (active)

I have this compound here, `Cn1cc(/C=C2/SC(=O)N(c3ccccc3)C2=O)c2ccccc21` , and I need its recorded EC50. 50.8 µM (active)

I have this compound here, `CN(C)C=O.Oc1cccc2c(NC(S)=Nc3ccc(OC(F)F)cc3)cccc12` , and I need its recorded EC50. 12.8 µM (active)

I have this compound here, O=C(NCC1CCCO1)c1cc2c(s1)CCC2 (centres undefined) , and I need its recorded EC50. 18.7 µM (active)

---

TARGET UNDER TEST: Corticotropin-releasing factor receptor 2/Corticotropin-releasing factor-binding protein (Homo sapiens, UniProt P24387+Q13324)
Sequence (Q13324 whole entry): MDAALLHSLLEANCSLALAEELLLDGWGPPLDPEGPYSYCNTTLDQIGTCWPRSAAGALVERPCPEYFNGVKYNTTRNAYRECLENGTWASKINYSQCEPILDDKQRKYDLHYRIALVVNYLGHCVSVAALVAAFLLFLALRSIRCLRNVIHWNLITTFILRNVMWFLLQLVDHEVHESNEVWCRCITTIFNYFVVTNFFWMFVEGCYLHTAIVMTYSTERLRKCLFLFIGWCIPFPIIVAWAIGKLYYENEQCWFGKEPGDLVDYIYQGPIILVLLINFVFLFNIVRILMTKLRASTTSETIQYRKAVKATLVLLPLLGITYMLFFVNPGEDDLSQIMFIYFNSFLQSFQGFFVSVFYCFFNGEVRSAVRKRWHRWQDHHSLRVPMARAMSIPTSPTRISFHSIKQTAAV
Sequence (P24387 whole entry): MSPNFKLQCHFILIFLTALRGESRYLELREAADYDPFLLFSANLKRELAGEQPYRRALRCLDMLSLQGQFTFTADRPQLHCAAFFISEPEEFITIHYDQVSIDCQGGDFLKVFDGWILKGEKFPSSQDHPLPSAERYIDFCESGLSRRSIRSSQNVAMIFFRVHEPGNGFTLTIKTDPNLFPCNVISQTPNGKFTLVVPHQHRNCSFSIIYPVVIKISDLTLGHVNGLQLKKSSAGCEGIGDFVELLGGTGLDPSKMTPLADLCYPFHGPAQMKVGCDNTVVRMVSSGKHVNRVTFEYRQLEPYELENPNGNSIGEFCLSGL
ASSAY SUMMARY: activators of CRF receptor 2 with binding protein – uHTS hits, confirmation (AID 602473)
Format: functional
CONDITION NOTES: read-out: EC50_Mean
Calls of active or inactive are those of the source.
Returns: one label drawn from active, inactive

Tell me the assay call for `COc1ccccc1NC(=O)CCSc1nnnn1C` please. inactive

Tell me the assay call for CCN(CC)C(=O)[C@H]1CC(CC(=O)NC/C=C(\C)CCC=C(C)C)C(=O)N2CCc3c([nH]c4ccc(OC)cc34)[C@]12C (stereo not given in full) please. inactive

Tell me the assay call for `Cc1ccc(S(=O)(=O)Nc2ccc(NC(=O)c3c(F)c(F)c(F)c(F)c3F)cc2)cc1` please. active

Tell me the assay call for `CCN(CC)C(=O)CSc1ncnc2c1cnn2-c1ccccc1` please. inactive

Tell me the assay call for Cc1ccc(CN2CC(C(=O)NCCCSc3ccccc3)CC2=O)cc1 (stereo not given) please. inactive

Tell me the assay call for `Cc1ccc(SCc2ccc(C(=O)Nc3ccccc3Br)cc2)cc1` please. inactive

Tell me the assay call for CN(Cc1ccccn1)C(=O)C1CCC(=O)N(Cc2cccc(C(F)(F)F)c2)C1 (stereo not given) please. inactive

Tell me the assay call for `O=C(OCCN1C(=O)c2cccc3c(N4CCOCC4)ccc(c23)C1=O)c1ccc(Cl)cc1` please. active

Tell me the assay call for `O=C(Nc1ccc(Br)cc1Cl)c1ccc2c(=O)n3c(nc2c1)CCC3` please. active

Tell me the assay call for `COc1cc2nc3c(O)n4c(nc-3c2cc1OC)SCCC4` please. inactive

---

TARGET UNDER TEST: Kallikrein-7 (Homo sapiens)
Sequence (P49862 whole entry): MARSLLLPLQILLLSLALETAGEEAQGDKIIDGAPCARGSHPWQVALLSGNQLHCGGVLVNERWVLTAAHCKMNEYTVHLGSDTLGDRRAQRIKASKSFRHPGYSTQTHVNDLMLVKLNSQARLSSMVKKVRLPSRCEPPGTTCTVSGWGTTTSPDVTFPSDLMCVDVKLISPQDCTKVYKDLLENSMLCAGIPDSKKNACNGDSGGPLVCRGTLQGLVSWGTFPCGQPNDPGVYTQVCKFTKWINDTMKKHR
ASSAY SUMMARY: Fluorescence Intensity-based biochemical primary high throughput dose response assay to identify activators of kallikrein-7 (K7) zymogen.
Active and inactive are the calls of the source.
Returns: one label drawn from active, inactive

Completed entries (count: 4):
CCCC(=O)Nc1c(-c2ccc(OC)cc2)c(=O)c2ccccc2n1C
inactive
CCC(CC)CC1CN2CCc3cc(OC)c(OC)cc3C2CC1(O)CC (stereo not given)
active
CCOC(=O)C1CCN(c2[nH]cnc3c4c(OC)cccc4nc2-3)CC1
active
CN1C=CC2=C(C#N)C(N)C(C#N)(C#N)[C@H](c3ccccc3)[C@H]2C1 (stereo not given in full)
inactive

Tell me the assay call for CC1=C(C#N)C(c2cccnc2)C2=C(O)CC(C)(C)CC2=N1 (stereo not given) please. inactive
